system: Amb a 1-specific T cell lines (TCL); test: T cell epitope mapping of Amb a 1.3: proliferation (3H-thymidine uptake) of TCL stimulated with synthetic peptides; type: cell-based, human; conditions: TCL from 48 ragweed pollen-allergic patients; peptide 5 μg/ml; stimulation index > 5
measure name: % (positive patients SI > 5) (%)
Report the value in % with no unit label.

Past entries and their recorded results:
sequence chain	readout units	readout value
EIINGGLTLMNV (Amb a 1 fragment) [Peptide 42]	%	10.4
DTHVQDKGMLAT (Amb a 1 fragment) [Peptide 76]	%	2.1
SKAILLGADDTH (Amb a 1 fragment) [Peptide 73]	%	4.2
LTLMNVKNIIIH (Amb a 1 fragment) [Peptide 44]	%	18.8
WRGKADWENNRQ (Amb a 1 fragment) [Peptide 11]	%	4.2
LVDVTLGSTHVT (Amb a 1 fragment) [Peptide 66]	%	8.3
KNVLARTGTGAA (Amb a 1 fragment) [Peptide 100]	%	10.4
MIPAEPGEAAIK (Amb a 1 fragment) [Peptide 116]	%	8.3

Record MNVKNIIIHNIN (Amb a 1 fragment) [Peptide 45] , field % (positive patients SI > 5): 0.0

Record CSLSKSFDGLVD (Amb a 1 fragment) [Peptide 63] , field % (positive patients SI > 5): 4.2

Record FQVVNNNYDRWG (Amb a 1 fragment) [Peptide 87] , field % (positive patients SI > 5): 4.2
